SYSTEM_UNDER_TEST: T1, rat NGF (rat, UniProt P25427 122-241)
T1 construct: also called rN
ASSAY_EXPLANATION: SPR (Biacore T200), 100 nM mAb on NGF chip, similarity to parent mAb
PARAMETER: Percent Similarity Score (KD on rN)
// return the numeric value with its unit appended

>  <BINDER>
can9L12VH_S53A (antibody, V domains shown) VH: EVQLVESGGDLVKPGGSLRLSCVASGFTFSSHGMHWVRQSPGKGLQWVAVINAGGSSTYYTDAVKGRFTISRDNAKNTVYLQMNSLRAEDTAMYYCAKESVGGWEQLVGPHFDYWGQGTLVIVSS VL: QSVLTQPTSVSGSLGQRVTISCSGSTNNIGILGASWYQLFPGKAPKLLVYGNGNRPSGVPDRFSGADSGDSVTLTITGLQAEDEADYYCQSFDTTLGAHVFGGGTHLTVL

>  <PARAMETER>
Percent Similarity Score (KD on rN)

>  <OBSERVED_RESULT>
99.9%

$$$$
>  <BINDER>
can9L12VH_I50A (antibody, V domains shown) VH: EVQLVESGGDLVKPGGSLRLSCVASGFTFSSHGMHWVRQSPGKGLQWVAVANSGGSSTYYTDAVKGRFTISRDNAKNTVYLQMNSLRAEDTAMYYCAKESVGGWEQLVGPHFDYWGQGTLVIVSS VL: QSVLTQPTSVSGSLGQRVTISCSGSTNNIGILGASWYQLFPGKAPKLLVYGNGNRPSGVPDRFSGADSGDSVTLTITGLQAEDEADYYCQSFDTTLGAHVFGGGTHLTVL

>  <PARAMETER>
Percent Similarity Score (KD on rN)

>  <OBSERVED_RESULT>
92%

$$$$

Let's switch to this binder now.
**Q:** Bench note: what Percent Similarity Score (KD on rN) did can48L2VL_Q90A (antibody, V domains shown, CDR scanning mutant of ZTS-842 (48L2)) VH: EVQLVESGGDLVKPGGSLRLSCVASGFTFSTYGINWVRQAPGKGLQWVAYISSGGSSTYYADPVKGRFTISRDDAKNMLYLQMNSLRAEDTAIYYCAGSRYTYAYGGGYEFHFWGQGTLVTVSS VL: QAVLNQPASVSGALGQKVTISCSGSTMDIDIFGVSWYQQLPGKAPKLLVDSDGDRPSGIPDRFSGSRSGNSGTLTITGLQAEDEADYHCASGDSTLGALAIFGGGTHVTVL show?
**A:** 98.7%
